assay-details: log P by reversed-phase HPLC analogously to OECD Guideline 117
Type: physicochemical
experimental-conditions: [b] neutral range, pH 7.8, ammonium hydrogencarbonate/acetonitrile
property-name: LogP[b]

• Cc1cc(F)c(-n2ncc(=O)n(CC(F)(F)F)c2=O)cc1[S+]([O-])CC(F)(F)F (single isomer, unassigned) [compound 50] = 2.57
• Cc1cc(C)c(-n2ccc(=O)n(C)c2=O)cc1SCC(F)(F)F [compound 92] = 2.72
• Cc1cc(F)c(-n2ncc(=O)n(CC(C)C)c2=O)cc1[S+]([O-])CC(F)(F)F (racemic) [compound 22] = 2.9
• CCn1c(=O)ccn(-c2ccc(C)c(SCC(F)(F)F)c2)c1=O [compound 83] = 2.81
• Cc1cc(F)c(-n2ccc(=O)n(CC(C)C)c2=O)cc1SCC(F)(F)F [compound 81] = 3.62
• Cc1cc(C)c([S+]([O-])CC(F)(F)F)cc1-n1ncc(=O)n(C(C)C)c1=O (racemic) [compound 38] = 2.67
• Cc1cc(F)c(-n2ncc(=O)n(CC(F)(F)F)c2=O)cc1[S+]([O-])CC(F)(F)F (single isomer, unassigned) [compound 51] = 2.57
• Cc1cc(F)c(-n2ncc(=O)n(CC#N)c2=O)cc1[S+]([O-])CC(F)(F)F (racemic) [compound 44] = 1.96
• COCn1c(=O)ccn(-c2cc(SCC(F)(F)F)c(C)cc2F)c1=O [compound 80] = 2.66
• Cc1cc(F)c(-n2ccc(=O)n(Cc3ccc(F)cc3)c2=O)cc1[S+]([O-])CC(F)(F)F (racemic) [compound 64] = 2.77
• Cc1ccc(-n2ncc(=O)n(C)c2=O)cc1SCC(F)(F)F [compound 23] = 2.83
• Cc1cc(F)c(-n2ccc(=O)n(CC(F)(F)F)c2=O)cc1SCC(F)(F)F [compound 72] = 3.29

* * *

assay-details: log P by reversed-phase HPLC analogously to OECD Guideline 117
Format: physicochemical
experimental-conditions: [a] acidic range, pH 2.7, formic acid (or trifluoroacetic acid)/acetonitrile
property-name: LogP[a]

* Cc1cc(F)c(-n2ccc(=O)n(Cc3ccc(F)cc3)c2=O)cc1[S+]([O-])CC(F)(F)F (racemic) | 2.68
* Cc1cc(C)c([S+]([O-])CC(F)(F)F)cc1-n1ncc(=O)n(C)c1=O (racemic) | 2.01
* Cc1cc(C)c(-n2ccc(=O)n(CC(F)(F)F)c2=O)cc1SCC(F)(F)F | 3.39
* Cn1c(=O)cnn(-c2ccc(Cl)c(SCC(F)(F)F)c2)c1=O [compound 31] | 3
* CCn1c(=O)cnn(-c2cc(SCC(F)(F)F)c(C)cc2C)c1=O | 3.45

* * *

Test system: greenhouse red spider mite (Tetranychus urticae)
assay-details: Tetranychus urticae spray test, OP-resistant (bean leaf discs)
Type: in vivo
experimental-conditions: application rate 500 g/ha, after 6 days
Experimental: Tetranychus urticae—Spray Test, OP-Resistant Solvent: 78.0 parts by weight of acetone • • 1.5 parts by weight of dimethylformamide Emulsifier: alkylaryl polyglycol ether To produce an appropriate active ingredient formulation, 1 part by weight of active ingredient is dissolved using the specified parts by weight of solvent and made up with water containing an emulsifier concentration of 1000 ppm until the desired concentration is attained. […] After 6 days, the efficacy in % is determined. […]
property-name: efficacy (spider mites killed) (%)

* Cc1cc(C)c([S+]([O-])CC(F)(F)F)cc1-n1ncc(=O)n(C)c1=O (racemic) | 100
* O=c1cnn(-c2cc(SCC(F)(F)F)c(Cl)cc2Cl)c(=O)n1CC(F)(F)F | 90
* Cc1cc(F)c(-n2ncc(=O)n(CC3CC3)c2=O)cc1SCC(F)(F)F | 100
* Cn1c(=O)cnn(-c2ccc(Cl)c(SCC(F)(F)F)c2)c1=O | 100
* Cc1cc(F)c(-n2ccc(=O)n(Cc3ccc(F)cc3)c2=O)cc1SCC(F)(F)F | 90
* Cc1ccc(-n2ccc(=O)[nH]c2=O)cc1SCC(F)(F)F | 90

* * *

Attribute: LogP[b]
assay-details: log P by reversed-phase HPLC analogously to OECD Guideline 117
Format: physicochemical
experimental-conditions: [b] neutral range, pH 7.8, ammonium hydrogencarbonate/acetonitrile
property-name: LogP[b]

- CCn1c(=O)ccn(-c2cc(SCC(F)(F)F)c(C)cc2C)c1=O: 3.07
- Cn1c(=O)cnn(-c2ccc(Cl)c(SCC(F)(F)F)c2)c1=O [compound 31]: 2.91
- Cc1cc(F)c(-n2ccc(=O)n(CC(F)F)c2=O)cc1SCC(F)(F)F: 3.06
- Cc1cc(C)c([S+]([O-])CC(F)(F)F)cc1-n1ncc(=O)n(CC(F)(F)F)c1=O (single isomer, unassigned) [compound 46]: 2.66
- Cc1cc(C)c([S+]([O-])CC(F)(F)F)cc1-n1ccc(=O)[nH]c1=O (centres unmarked): 1.38
- Cc1ccc(-n2ccc(=O)[nH]c2=O)cc1SCC(F)(F)F: 2.05
- Cc1cc(C)c(-n2ncc(=O)n(CC3CC3)c2=O)cc1SCC(F)(F)F: 3.87
- Cc1cc(F)c(-n2ncc(=O)n(CC(C)C)c2=O)cc1SCC(F)(F)F: 4
- Cc1cc(F)c(-n2ccc(=O)n(CC(F)(F)F)c2=O)cc1[S+]([O-])CC(F)(F)F (racemic): 2.34
- CCn1c(=O)cnn(-c2cc([S+]([O-])CC(F)(F)F)c(C)cc2F)c1=O (racemic): 2.22
- Cc1cc(F)c(-n2ncc(=O)n(Cc3cccnc3)c2=O)cc1SCC(F)(F)F: 2.87
- CCn1c(=O)cnn(-c2cc(SCC(F)(F)F)c(C)cc2C)c1=O: 3.38
- Cc1cc(F)c(-n2ncc(=O)n(CC#N)c2=O)cc1SCC(F)(F)F: 2.9
- Cc1cc(F)c(-n2ccc(=O)n(C(C)C)c2=O)cc1[S+]([O-])CC(F)(F)F (racemic): 2.31
- Cc1ccc(-n2ccc(=O)n(CC(F)(F)F)c2=O)cc1SCC(F)(F)F: 3.15
- COCn1c(=O)ccn(-c2cc([S+]([O-])CC(F)(F)F)c(C)cc2F)c1=O (centres unmarked): 1.74
- Cc1cc(F)c(-n2ncc(=O)n(Cc3cccnc3)c2=O)cc1[S+]([O-])CC(F)(F)F (racemic): 2.00
- Cc1cc(F)c(-n2ncc(=O)n(C(C)C)c2=O)cc1SCC(F)(F)F: 3.67
- C=CCn1c(=O)ccn(-c2cc(SCC(F)(F)F)c(C)cc2F)c1=O: 3.06
- Cc1cc(F)c(-n2ccc(=O)n(CC(F)F)c2=O)cc1[S+]([O-])CC(F)(F)F (centres unmarked): 2.11
- Cc1ccc(-n2ccc(=O)n(C(C)C)c2=O)cc1SCC(F)(F)F: 3.25
- Cc1cc(C)c([S+]([O-])CC(F)(F)F)cc1-n1ncc(=O)n(Cc2ccccc2)c1=O (racemic): 3.00
- Cc1cc(F)c(-n2ccc(=O)n(CC(C)C)c2=O)cc1[S+]([O-])CC(F)(F)F (centres unmarked): 2.55
- Cc1cc(C)c(-n2ncc(=O)n(CC#N)c2=O)cc1SCC(F)(F)F: 3.05
- Cc1ccc(-n2ccc(=O)n(CC3CC3)c2=O)cc1SCC(F)(F)F: 3.31
- Cc1cc(C)c(-n2ccc(=O)[nH]c2=O)cc1SCC(F)(F)F: 2.25

* * *

assay-details: log P by reversed-phase HPLC analogously to OECD Guideline 117
Assay type: physicochemical
experimental-conditions: [b] neutral range, pH 7.8, ammonium hydrogencarbonate/acetonitrile
property-name: LogP[b]

* CCn1c(=O)ccn(-c2cc([S+]([O-])CC(F)(F)F)c(C)cc2C)c1=O (centres unmarked) [compound 97] | 1.99
* Cc1cc(C)c(-n2ccc(=O)n(CC(F)(F)F)c2=O)cc1SCC(F)(F)F [compound 94] | 3.49
* Cc1cc(F)c(-n2ncc(=O)n(CC3CC3)c2=O)cc1SCC(F)(F)F [compound 25] | 3.76
* CCCn1c(=O)ccn(-c2cc([S+]([O-])CC(F)(F)F)c(C)cc2F)c1=O (centres unmarked) [compound 66] | 2.25
* Cc1cc(F)c(-n2ccc(=O)n(C(C)C)c2=O)cc1SCC(F)(F)F [compound 75] | 3.35
* Cc1cc(F)c(-n2ncc(=O)n(Cc3ccccc3)c2=O)cc1[S+]([O-])CC(F)(F)F (racemic) [compound 45] | 2.9
* Cc1cc(C)c(-n2ncc(=O)n(CC(C)C)c2=O)cc1SCC(F)(F)F [compound 41] | 4.1
* CCn1c(=O)cnn(-c2cc(SCC(F)(F)F)c(C)cc2F)c1=O [compound 19] | 3.27
* Cc1cc(C)c([S+]([O-])CC(F)(F)F)cc1-n1ncc(=O)n(CC(F)(F)F)c1=O (single isomer, unassigned) [compound 47] | 2.66
* Cc1ccc(-n2ncc(=O)n(C)c2=O)cc1[S+]([O-])CC(F)(F)F (racemic) [compound 24] | 1.83
* Cc1ccc(-n2ccc(=O)n(CC(F)(F)F)c2=O)cc1[S+]([O-])CC(F)(F)F (centres unmarked) [compound 90] | 2.21

Ref: patent US9783509B2
